# System: ACHN renal
# experiment summary: NCI tumour cell line growth inhibition, 48 h
TGI values for the compounds below.

Previously resolved entries follow.
INSERT INTO assay_data (compound, recorded_endpoint, val) VALUES
  ('N#Cc1ccc(Nc2cnc3cc(N)ccc3n2)cc1', 'TGI', '> 100 µM'),
  ('Fc1cc(C2=C[C@H](c3ccc4c(c3)OCO4)NC(=S)N2)c(Cl)cc1Cl', 'TGI', '> 100 µM'),
  ('CC(C)CC(=O)N1CCN(C(=O)CC(C)C)c2ccccc21', 'TGI', '> 100 µM');

Measured TGI of O=CC(O)C(O)C(O)COc1cc(CO)cc2c1C(=O)c1ccccc1C2=O (stereo unspecified) : > 31.6 µM

Measured TGI of `C=CC1(c2ccc(Cl)c(Cl)c2)OCCO1` : > 100 µM

Measured TGI of `Clc1ccc(-c2nc(-c3c[nH]c4ncccc34)cs2)cc1` : > 100 µM

Reference source: PubChem BioAssay (NCI)
